Source of measurements: patent US9611262B2

pKi: −log10 of the molar value.
As a worked illustration, we turn to pKi data collected for human orexin 1 receptor (Homo sapiens (Human)).
Observed Property: pKi

I: C[C@@H]1[C@H]2C[C@@H](Oc3ccc(C(F)(F)F)cn3)[C@H](C2)N1C(=O)c1ccccc1-c1cccc([N+](=O)[O-])n1
II: Cc1cnc(-n2nccn2)c(C(=O)N2[C@H](C)[C@H]3C[C@@H](Oc4ccc(Cl)cn4)[C@@H]2C3)c1
Asked: Hey, which is lower on measured pKi, I or II ? State your choice using its label.
Given back: I

----------
Target: rat orexin 1 receptor (Rattus norvegicus)
Assay Info: Rat orexin 1 receptor radioligand binding (competitive)
Experimental Setup: HEK293 cells stably expressing rat orexin 1 receptor; 4 nM radioligand; averages of 2-20 runs; read-out: rOX1 Ki
pKi: −log10 of the molar value.
Observed Property: pKi

O=C(c1cc(F)ccc1-c1ncc(F)cn1)N1[C@H](CF)[C@@H]2CC[C@H]1[C@H](Oc1ccc(C(F)(F)F)cn1)C2 ... 7.37

a: Cc1ccc(-n2nccn2)c(C(=O)N2[C@H](CF)[C@@H]3CC[C@H]2[C@H](Oc2ccc(C(F)(F)F)cn2)C3)n1
b: COC[C@@H]1[C@@H]2CC[C@@H]([C@H](Oc3ccc(C(F)(F)F)cn3)C2)N1C(=O)c1nc(C)ccc1-c1ncccn1
Asked: Compare pKi: is it lower for a or for b ? Let me know the label of the one you choose.
Given back: b
(b: 7.49, a: 7.89)
